Each entry below carries its reported TGI.
# Tested on: M19-MEL melanoma
# Assay notes: NCI tumour cell line growth inhibition, 48 h

Example entries begin here.
Compound: CCCCCCCC(=O)OC[C@H](C[As](=O)(O)O)OC(=O)CCCCCCC
TGI: 27.2 µM
--
Compound: Cc1ccc(/C=N/NS(=O)(=O)c2ccccc2)cc1C
TGI: > 100 µM
--
Compound: O=C1CCCCN1
TGI: > 1120 µM
--
Compound: COc1cccc(C=O)c1[O-].COc1cccc(C=O)c1[O-].[Zn+2]
TGI: 98.6 µM
--
Compound: CC(C)C1=CC2=CC[C@@H]3[C@](C)(CCC[C@@]3(C)C(=O)O)[C@H]2CC1
TGI: > 100 µM
--
Compound: O=C(O[C@H]1[C@@H]2C=CO[C@@H](OC3OC(CO)C(O)C(O)C3O)[C@@H]2[C@@]2(CO)O[C@@H]12)c1ccc(O)c(O)c1 (some centres undefined)
TGI: > 100 µM
--
Compound: O=S1(=O)c2cc(S(=O)(=O)n3ccnc3)ccc2NC2=NCCCN21
TGI: > 100 µM
--
Compound: Cc1cc2c(=O)c(C)n[nH]c2c(C#N)c1C
TGI: > 100 µM

The compound Oc1ccc(C2Oc3cc(O)cc4c3C2c2cc(O)cc3c2C(c2cc(O)cc5c2C4C(c2ccc(O)cc2)O5)C(c2ccc(O)cc2)O3)cc1 (centres undefined) showed TGI equal to > 25 µM

The compound Brc1ccc(C=NC23CC4CC(CC(C4)C2)C3)cc1 showed TGI equal to > 100 µM

The compound Cc1[nH]c2ccccc2c1C1=NO/C(=N\O)C(c2c(C)[nH]c3ccccc23)C1 (centres undefined) showed TGI equal to > 100 µM
